The reported measurements were obtained from patent US5958445A.

assay: physchem; assay type: physicochemical; details: 2% triethanolamine
Measure: solubility at 72 h (mg/mL)
Give just the numeric value; mg/mL need not be written.

Problem: For CCc1cccc2c3c([nH]c12)[C@](CC)(CC(=O)O)OCC3 [S(+)-etodolac] , what is its reported solubility at 72 h?
Solution: 39.4

Problem: What about CCc1cccc2c3c([nH]c12)C(CC)(CC(=O)O)OCC3 (racemic) ?
Solution: 37.7

---

experiment: physchem; assay type: physicochemical; conditions: 100% dimethylacetamide, organic solvent or mixture
Measure: solubility at 72 h (mg/mL)
Please give a number only; it is taken to be in mg/mL.

Problem: Need solubility at 72 h, item CCc1cccc2c3c([nH]c12)[C@](CC)(CC(=O)O)OCC3 [S(+)-etodolac]
Solution: 758
